# Tested on: NOMO1
# procedure-summary: cell viability relative to DMSO control; higher = less cytotoxic
# condition: HPLM + 10% dialyzed FBS; 48 h; 5.12 µM
endpoint-name: cell viability (%)
Form entry: value (%) — number only.

molecule	target-under-test	cell viability [%]
CC(C)(C)NC(=O)[C@@H]1CN(Cc2cccnc2)CCN1C[C@@H](O)C[C@@H](Cc1ccccc1)C(=O)N[C@H]1c2ccccc2C[C@H]1O.O=S(=O)(O)O	NOMO1	122
NC(=O)c1cccc(N)c1	NOMO1	126
Cc1[nH]c(/C=C2\C(=O)Nc3ccc([S+](=O)([O-])Cc4c(Cl)cccc4Cl)cc32)c(C)c1C(=O)N1CCC[C@@H]1CN1CCCC1	NOMO1	81.2
NCC(=O)Nc1ccc(-n2nc(C(F)(F)F)cc2-c2ccc3c(ccc4ccccc43)c2)cc1	NOMO1	131
COc1ccc(Nc2cc(-c3cnc(N)nc3)nc(N3CCOCC3)n2)cn1	NOMO1	54.7
CC(C)NCC(O)c1ccc(NS(C)(=O)=O)cc1 (stereo not given)	NOMO1	109
N[C@@H](CC(=O)N1CCn2c(nnc2C(F)(F)F)C1)Cc1cc(F)c(F)cc1F	NOMO1	109
C[C@@H]1CC[C@@]2(OC1)OC1CC3C4CC=C5CC(O)CCC5(C)C4CCC3(C)C1[C@@H]2C (stereo not given in full)	NOMO1	117

[Q] Data request, read-out cell viability, for NC(=O)Nc1cc(-c2ccc(CN3CCOCC3)cc2)sc1C(N)=O
[A] 84.6

[Q] Data request, read-out cell viability, for O=C(NNC(=O)c1ccc(CN[S+](=O)([O-])c2ccc(F)c(Cl)c2)cc1)c1ccccc1
[A] 113

[Q] Data request, read-out cell viability, for O=c1[nH]cnc2c1ncn2[C@H]1CC[C@@H](CO)O1
[A] 107

[Q] Data request, read-out cell viability, for C[C@@H]1C[C@H]2[C@@H]3CC\C4=C\C(=O)\C=C/[C@]4(C)[C@@]3(Cl)[C@@H](O)C[C@]2(C)[C@@]1(OC(=O)C5=CC=CO5)C(=O)CCl
[A] 81.9

[Q] Data request, read-out cell viability, for CO[C@@H]1C(N(C)C(=O)c2ccccc2)C[C@H]2O[C@]1(C)n1c3ccccc3c3c4c(c5c6ccccc6n2c5c31)C(=O)NC4=O (stereo not given in full)
[A] 58.4

----------
# System: NOMO1
# procedure-summary: cell viability relative to DMSO control; higher = less cytotoxic
# condition: HPLM + 10% dialyzed FBS; 48 h; 0.19 µM
Parameter cell viability: see the listing below.

Some molecules with known cell viability results, for comparison:
line-notation	target-under-test	cell viability
COC[C@H]1OC(=O)C2=COC3=C2[C@@]1(C)\C4=C(\[C@@H]5CC[C@H](O)[C@@]5(C)C[C@H]4OC(C)=O)C3=O	NOMO1	134%
O=C(NNC(=O)c1ccc(CN[S+](=O)([O-])c2ccc(F)c(Cl)c2)cc1)c1ccccc1	NOMO1	103%

Here's the next entry for you.
[Q] Data request, read-out cell viability, for CC(C)(C)NC(=O)[C@@H]1CN(Cc2cccnc2)CCN1C[C@@H](O)C[C@@H](Cc1ccccc1)C(=O)N[C@H]1c2ccccc2C[C@H]1O.O=S(=O)(O)O
[A] 105%

----------
# System: NOMO1
# procedure-summary: cell viability relative to DMSO control; higher = less cytotoxic
# condition: RPMI 5 mM glucose + 10% dialyzed FBS; 48 h; 0.0632 µM
endpoint-name: cell viability (%)
Form entry: value (%) — number only.

[Q] Data request, read-out cell viability, for CCCCCCCCc1ccc(CCC(N)(CO)CO)cc1
[A] 105

[Q] Data request, read-out cell viability, for COC[C@H]1OC(=O)C2=COC3=C2[C@@]1(C)\C4=C(\[C@@H]5CC[C@H](O)[C@@]5(C)C[C@H]4OC(C)=O)C3=O
[A] 118

[Q] Data request, read-out cell viability, for COc1cccc2c1C(=O)c1c(O)c3c(c(O)c1C2=O)C[C@@](O)(C(C)=O)C[C@@H]3O[C@H]1C[C@H](N)[C@H](O)[C@H](C)O1
[A] 108

[Q] Data request, read-out cell viability, for COc1cc([C@@H]2c3cc4c(cc3[C@@H](O[C@@H]3O[C@@H]5CO[C@@H](c6cccs6)O[C@H]5[C@H](O)[C@H]3O)[C@H]3COC(=O)[C@H]23)OCO4)cc(OC)c1O
[A] 93.2

[Q] Data request, read-out cell viability, for CCNC(=O)[C@H]1O[C@@H](n2cnc3c(N)nc(NCCc4ccc(CCC(=O)O)cc4)nc32)[C@H](O)[C@@H]1O
[A] 92.3

[Q] Data request, read-out cell viability, for CCCCCCCCCCCCCCCCCCOP(=O)([O-])OC1CC[N+](C)(C)CC1
[A] 100

[Q] Data request, read-out cell viability, for CC(C)[C@H](CO)Nc1nc(Nc2cccc(Cl)c2)c2ncn(C(C)C)c2n1
[A] 124

The measurements presented in this section are drawn from the supplement of paper PMC11451515.
